- TARGET UNDER TEST: TNFα (UniProt P01375 77-233)
- Sequence (P01375 77-233 limits assumed): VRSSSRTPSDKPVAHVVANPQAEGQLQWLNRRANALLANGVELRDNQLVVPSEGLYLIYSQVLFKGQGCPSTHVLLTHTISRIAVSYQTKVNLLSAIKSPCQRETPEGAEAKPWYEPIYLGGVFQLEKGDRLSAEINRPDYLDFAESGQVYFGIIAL
- TEST SUMMARY: SPR (Biacore), TNFα on CM5 chip, Fab injected
METRIC: fold difference in affinity against the chimeric antibody anti-TNFα H0L0

For Anti-TNFα H1.45L1.33 (Fab, V domains shown, Fab format) VH: EVQLVESGGGLVQPGGSLKLSCAASGFIFSNHWMNWVRQASGKGLEWVGEIRSKAINYATHYAESVKGRFTISRDDSKSIVYLQMNSLKTEDTAVYYCSRNYYGSTYDYWGQGTLVTVSS VL: EIVLTQSPDFQSVTPKEKVTITCRASQFIGSSLHWYQQKPDQSPKLLIKYASESFSGVPSRFSGSGSGTDFTLTINSLEAEDAATYYCQQSHSWPFTFGSGTKLEIK the binder record lists fold difference in affinity against the chimeric antibody anti-TNFα H0L0 as ≤ 3 fold

// data source = patent US20100004431A1
